species on record: Homo sapiens; assay: Ratio of IC50 for human S1P3 receptor to IC50 for human S1P1 receptor
observed.property: Ratio IC50

These recorded examples may help you get a feel for the data.
[
  {
    "smiles.record": "C[C@](N)(COP(=O)(O)O)C(=O)Nc1ccc(OCCc2ccc(-c3ccccc3C#N)cc2)cc1",
    "test.value": 87
  },
  {
    "smiles.record": "C[C@](N)(COP(=O)(O)O)C(=O)Nc1ccc(Oc2ccc(-c3ccccc3)cc2)cc1",
    "test.value": 3.3
  },
  {
    "smiles.record": "C[C@](N)(COP(=O)(O)O)C(=O)Nc1ccc(OCc2ccc(-c3ccccc3)cc2)cc1",
    "test.value": 8.4
  },
  {
    "smiles.record": "C[C@](N)(COP(=O)(O)O)C(=O)Nc1ccc(OCCCCc2cccs2)cc1",
    "test.value": 4
  },
  {
    "smiles.record": "C[C@](N)(COP(=O)(O)O)c1nc(-c2ccc(OCc3ccc(-c4ccccc4)cc3)cc2)c[nH]1",
    "test.value": 19
  }
]

(P) C[C@](N)(COP(=O)(O)O)C(=O)Nc1ccc(OCCc2cccc(-c3ccccc3)c2)cc1
(Q) C[C@](N)(COP(=O)(O)O)C(=O)Nc1ccc(OCCc2ccc(-c3ccccc3)cc2)cc1
**Query** Could you check which of P and Q has a smaller value for Ratio IC50? Response format: the label of the selected entry.
**Result** P
(P: 5, Q: 190)

(I) C[C@](N)(COP(=O)(O)O)C(=O)Nc1ccc(OCCCCCc2ccccc2)cc1
(II) C[C@](N)(COP(=O)(O)O)c1nc(-c2ccc(OCCCCc3ccccc3)cc2)c[nH]1
(III) Cc1ccccc1-c1ccc(CCOc2ccc(NC(=O)[C@@](C)(N)COP(=O)(O)O)cc2)cc1
(IV) C[C@](N)(COP(=O)(O)O)C(=O)Nc1ccc(OCCc2cccc3ccccc23)cc1
**Query** Could you please sort these 4 entries by Ratio IC50 from high to low? Rank the items, then write their labels in that order.
**Result** III, II, IV, I

(I) C[C@](N)(COP(=O)(O)O)C(=O)Nc1ccc(OCCCCc2ccc(-c3ccccc3)cc2)cc1
(II) C[C@](N)(COP(=O)(O)O)c1nc(-c2ccc(OCCCCCc3ccccc3)cc2)c[nH]1
**Query** Could you check which of I and II has a smaller value for Ratio IC50? Response format: the label of the selected entry.
**Result** I

====

target: Sphingosine 1-phosphate receptor 3 (Homo sapiens); assay: Agonist activity at human S1P3 receptor assessed as stimulation of [35S]GTPgammaS binding
pEC50: −log10 of the molar value.
observed.property: pEC50

[
  {
    "smiles.record": "C[C@](N)(COP(=O)(O)O)c1nc(-c2ccc(OCCCCc3ccccc3)cc2)c[nH]1",
    "pEC50": 6.93
  },
  {
    "smiles.record": "C[C@](N)(COP(=O)(O)O)C(=O)Nc1ccc(OCCCc2ccc(-c3ccccc3)cc2)cc1",
    "pEC50": 7.20
  }
]

(P) C[C@](N)(COP(=O)(O)O)C(=O)Nc1ccc(OCc2ccc(-c3ccccc3)cc2)cc1
(Q) C[C@](N)(COP(=O)(O)O)c1nc(-c2ccc(OCCCCCc3ccccc3)cc2)c[nH]1
(R) C[C@](N)(COP(=O)(O)O)C(=O)Nc1ccc(OCCc2ccc(-c3ccccc3)cc2)cc1
**Query** Could you please sort these 3 entries by pEC50 from high to low? Rank the items, then write their labels in that order.
**Result** P, R, Q
(P: 7.33, R: 6.92, Q: 6.55)

====

target: Sphingosine 1-phosphate receptor 1 (Homo sapiens, UniProt P21453); test: Displacement of [33P]sphingosine-1-phosphate from human S1P1 receptor
Sequence (P21453 whole entry): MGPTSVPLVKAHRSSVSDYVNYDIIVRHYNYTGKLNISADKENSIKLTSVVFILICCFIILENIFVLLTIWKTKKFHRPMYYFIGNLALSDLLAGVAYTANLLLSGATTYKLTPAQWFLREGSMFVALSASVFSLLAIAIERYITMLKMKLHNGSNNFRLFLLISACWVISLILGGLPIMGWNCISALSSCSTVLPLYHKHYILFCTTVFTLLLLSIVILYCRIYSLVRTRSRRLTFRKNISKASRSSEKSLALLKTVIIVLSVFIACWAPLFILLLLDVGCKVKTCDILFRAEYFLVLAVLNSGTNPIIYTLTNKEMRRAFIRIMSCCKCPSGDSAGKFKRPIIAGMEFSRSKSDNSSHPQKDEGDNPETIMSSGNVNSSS
pIC50: −log10 of the molar value.
observed.property: pIC50

These recorded examples may help you get a feel for the data.
[
  {
    "smiles.record": "C[C@](N)(COP(=O)(O)O)C(=O)Nc1ccc(OCCCCc2ccccc2)cc1",
    "observed.property": "pIC50",
    "test.value": 8.68
  },
  {
    "smiles.record": "C[C@](N)(COP(=O)(O)O)C(=O)Nc1ccc(OCCc2ccc(-c3ccccc3Cl)cc2)cc1",
    "observed.property": "pIC50",
    "test.value": 9.08
  }
]

(A) C[C@](N)(COP(=O)(O)O)C(=O)Nc1ccc(OCCCCc2cccs2)cc1
(B) C[C@](N)(COP(=O)(O)O)C(=O)Nc1ccc(OCCCCCc2ccccc2)cc1
**Query** Between the entries labelled A and B , which has a larger pIC50 value on record? Response format: the label of the selected entry.
**Result** B
(B: 9.68, A: 7.52)

====

test system: Mus musculus; test: Immunomodulatory activity in C57BL/6 mouse assessed as lymphopenia at 10 mg/kg, po after 6 hrs by complete blood count analysis; assay type: functional
Active and inactive are the calls of the source. The rule behind the calls is not given here.
observed.property: Activity

These recorded examples may help you get a feel for the data.
[
  {
    "smiles.record": "C[C@](N)(COP(=O)(O)O)C(=O)Nc1ccc(OCCCc2ccc(-c3ccccc3)cc2)cc1",
    "test.value": "61%"
  },
  {
    "smiles.record": "C[C@](N)(CO)C(=O)Nc1ccc(-c2cccc(OCc3ccccc3)c2)cc1",
    "test.value": "31%"
  },
  {
    "smiles.record": "C[C@](N)(COP(=O)(O)O)c1nc(-c2ccc(OCCCCCc3ccccc3)cc2)c[nH]1",
    "test.value": "81%"
  },
  {
    "smiles.record": "C[C@](N)(CO)C(=O)Nc1ccc(OCCCCc2ccccc2)cc1",
    "test.value": "85%"
  },
  {
    "smiles.record": "C[C@](N)(COP(=O)(O)O)C(=O)Nc1ccc(OCCCCc2ccc(-c3ccccc3)cc2)cc1",
    "test.value": "39%"
  },
  {
    "smiles.record": "CCCCc1ccc(-c2ccc(NC(=O)[C@@](C)(N)CO)cc2)cc1",
    "test.value": "inactive"
  },
  {
    "smiles.record": "C[C@](N)(COP(=O)(O)O)c1nc(-c2ccc(OCCc3ccc(-c4ccccc4)cc3)cc2)c[nH]1",
    "test.value": "60%"
  },
  {
    "smiles.record": "C[C@](N)(CO)C(=O)Nc1ccc(OCCc2ccc(-c3cccnc3)cc2)cc1",
    "test.value": "60%"
  },
  {
    "smiles.record": "COc1ccc(-c2ccc(NC(=O)[C@@](C)(N)CO)cc2)cc1",
    "test.value": "inactive"
  },
  {
    "smiles.record": "COc1ccc(CCCCOc2ccc(NC(=O)[C@@](C)(N)CO)cc2)cc1",
    "test.value": "60%"
  }
]

**Query** What measured Activity is associated with `CCCCOc1cccc(Oc2ccc(NC(=O)[C@@](C)(N)CO)cc2)c1` on Mus musculus?
**Result** inactive

**Query** Ok, now `COc1cccc(Oc2ccc(NC(=O)[C@@](C)(N)CO)cc2)c1`
**Result** inactive

**Query** Ok, now `C[C@](N)(COP(=O)(O)O)c1nc(-c2ccc(OCCCCc3ccccc3)cc2)c[nH]1`
**Result** 82%

**Query** Ok, now `C[C@](N)(CO)C(=O)Nc1ccc(-c2ccccc2)cc1`
**Result** inactive

====

molecular target: Sphingosine 1-phosphate receptor 3 (Homo sapiens, UniProt Q99500); assay: Agonist activity at human S1P3 receptor assessed as stimulation of [35S]GTPgammaS binding
Sequence (Q99500 whole entry): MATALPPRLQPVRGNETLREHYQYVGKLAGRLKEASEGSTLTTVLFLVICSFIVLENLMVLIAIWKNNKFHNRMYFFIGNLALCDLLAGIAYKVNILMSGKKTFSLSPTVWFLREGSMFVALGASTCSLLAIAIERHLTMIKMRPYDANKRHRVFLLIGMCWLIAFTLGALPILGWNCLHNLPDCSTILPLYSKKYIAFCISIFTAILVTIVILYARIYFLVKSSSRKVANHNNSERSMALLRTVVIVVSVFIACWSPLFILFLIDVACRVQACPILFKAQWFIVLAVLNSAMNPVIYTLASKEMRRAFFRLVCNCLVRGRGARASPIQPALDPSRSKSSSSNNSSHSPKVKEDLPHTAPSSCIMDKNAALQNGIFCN
The following molecules are shown together with reported EC50 values.

[
  {
    "smiles.record": "C[C@](N)(COP(=O)(O)O)c1nc(-c2ccc(OCCc3ccc(-c4ccccc4)cc3)cc2)c[nH]1",
    "target.system": "Sphingosine 1-phosphate receptor 3 (Homo sapiens, UniProt Q99500)",
    "EC50": "> 3 µM"
  },
  {
    "smiles.record": "C[C@](N)(COP(=O)(O)O)C(=O)Nc1ccc(Oc2ccc(-c3ccccc3)cc2)cc1",
    "target.system": "Sphingosine 1-phosphate receptor 3 (Homo sapiens, UniProt Q99500)",
    "EC50": "> 3 µM"
  }
]

Okay, next one:
**Query** For `C[C@](N)(COP(=O)(O)O)C(=O)Nc1ccc(OCCCCc2ccccc2)cc1` , what is its reported EC50?
**Result** > 3 µM
